# credit: patent US8129371B2

Target: PI3K (Homo sapiens)
Construct: PI3 Kinase α IC50; other: PI3 Kinase α; other: PI3 Kinase α isoform, fluorescence polarization
Test: Fluorescence polarization assay for PI3K
Format: biochemical
Conditions: PI3 Kinase α; read-out: PI3 Kinase α IC50
Please respond with reported pIC50 for every item in the list.
Reminder that pIC50 is minus the log10 of a molar concentration.

Return pIC50 (reported value) for this compound: CC(C)OC(=O)N1CCC(n2ncc3c(N4CC5CCC(C4)O5)nc(-c4ccc(NC(=O)Nc5ccncc5)cc4)nc32)CC1 [Example 73]
6.34

For the compound CNC(=O)Nc1ccc(-c2nc(N3CC4CCC(C3)O4)c3cnn(C4CCC(OC)(OC)CC4)c3n2)cc1 [Example 150] , report pIC50.
6.19

Output measured pIC50 for this item: O=C(Nc1ccc(-c2nc(N3CC4CCC(C3)O4)c3cnn(CC(F)(F)F)c3n2)cc1)Nc1cccc(CO)c1 [Example 255]
6.98

Output pIC50 of CNC(=O)Nc1ccc(-c2nc(N3CC4CCC(C3)O4)c3cnn(C4CCC5(CC4)OCCO5)c3n2)cc1 [Example 105]
5.93

For Cn1ncc2c(N3CC4CCC(C3)O4)nc(-c3ccc(NC(=O)Nc4ccc(CCO)cc4)cc3)nc21 [Example 232] , write its pIC50.
7.22

Consider the compound CCOC(=O)N1CCC(n2ncc3c(N4CC5CCC(C4)O5)nc(-c4ccc(NC(=O)NCCF)cc4)nc32)CC1 [Example 32] and give its recorded pIC50.
5.48

Query pIC50 for CC(C)(C)n1ncc2c(N3CC4CCC(C3)O4)nc(-c3ccc(NC(=O)NCCO)cc3)nc21 [Example 97]
6.55

###

Biological target: PI3K (Homo sapiens, UniProt P48736)
Construct: PI3 Kinase γ IC50; other: PI3 Kinase γ; other: PI3 Kinase γ isoform, fluorescence polarization
Sequence (P48736 whole entry, canonical isoform): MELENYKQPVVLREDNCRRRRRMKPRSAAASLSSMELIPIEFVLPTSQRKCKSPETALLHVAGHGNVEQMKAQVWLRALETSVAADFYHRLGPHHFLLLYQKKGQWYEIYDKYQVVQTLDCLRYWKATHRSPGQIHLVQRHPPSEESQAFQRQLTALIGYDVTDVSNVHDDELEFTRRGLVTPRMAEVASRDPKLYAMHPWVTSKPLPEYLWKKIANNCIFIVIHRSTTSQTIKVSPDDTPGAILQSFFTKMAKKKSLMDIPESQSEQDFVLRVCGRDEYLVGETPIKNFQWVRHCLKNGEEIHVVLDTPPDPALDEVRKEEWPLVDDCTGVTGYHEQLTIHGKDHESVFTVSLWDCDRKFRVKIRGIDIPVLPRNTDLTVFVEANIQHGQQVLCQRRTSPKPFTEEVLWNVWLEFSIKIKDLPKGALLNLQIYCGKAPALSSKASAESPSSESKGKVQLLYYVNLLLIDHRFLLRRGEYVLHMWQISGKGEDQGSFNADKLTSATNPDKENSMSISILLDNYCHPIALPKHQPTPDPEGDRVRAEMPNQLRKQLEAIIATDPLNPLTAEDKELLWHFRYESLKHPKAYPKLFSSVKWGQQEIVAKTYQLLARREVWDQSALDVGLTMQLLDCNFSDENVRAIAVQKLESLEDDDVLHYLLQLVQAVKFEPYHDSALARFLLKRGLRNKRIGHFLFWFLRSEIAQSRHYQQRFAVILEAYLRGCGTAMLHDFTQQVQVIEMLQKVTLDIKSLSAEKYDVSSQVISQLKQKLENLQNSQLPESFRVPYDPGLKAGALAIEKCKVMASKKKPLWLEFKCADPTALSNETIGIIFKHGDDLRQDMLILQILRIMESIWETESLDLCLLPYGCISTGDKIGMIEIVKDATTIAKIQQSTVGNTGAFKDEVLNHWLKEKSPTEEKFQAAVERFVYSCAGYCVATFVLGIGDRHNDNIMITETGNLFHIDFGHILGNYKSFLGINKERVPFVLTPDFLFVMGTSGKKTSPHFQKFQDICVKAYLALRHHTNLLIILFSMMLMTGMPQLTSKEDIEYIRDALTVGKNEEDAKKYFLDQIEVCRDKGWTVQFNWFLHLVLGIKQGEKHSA
Assay: Fluorescence polarization assay for PI3K
Assay type: biochemical
Conditions: PI3 Kinase γ; read-out: PI3 Kinase γ IC50
quantity-kind: IC50 (µM)
Reply numerically in µM, unit not repeated.

Using known records, supply IC50 for `CN(C)CCn1ncc2c(N3CC4CCC(C3)O4)nc(-c3ccc(NC(=O)Nc4cccnc4)cc3)nc21`
3.12

Assign IC50 to the following record: `CC(C)(C)OC(=O)N1CCC(n2ncc3c(N4CC5CCC(C4)O5)nc(-c4ccc(NC(=O)Nc5cccnc5)cc4)nc32)CC1`
6.3

Output IC50 of `CC(C)(C)n1ncc2c(N3CC4CCC(C3)O4)nc(-c3ccc(NC(=O)NCCO)cc3)nc21`
9.5

Return reported IC50. Input compound: `CC(C)n1ncc2c(N3CC4CCC(C3)O4)nc(-c3ccc(NC(=O)OCCO)cc3)nc21`
11

###

Biological target: PI3K (Homo sapiens, UniProt P48736)
Construct: PI3 Kinase γ IC50; other: PI3 Kinase γ; other: PI3 Kinase γ isoform, fluorescence polarization
Experiment: Fluorescence polarization assay for PI3K
Assay type: biochemical
Settings: PI3 Kinase γ; read-out: PI3 Kinase γ IC50
Could you please report measured pIC50 for the items listed next?
Reminder that pIC50 means the negative base-10 logarithm of the concentration expressed in mol/L.

# assay system PI3K (Homo sapiens, UniProt P48736): give pIC50 of O=C(Nc1ccc(-c2nc(N3C4CCC3COC4)c3cnn(CC(F)(F)F)c3n2)cc1)Nc1ccc(N2CCOCC2)nc1 [Example 274]
5.14

Give pIC50; test system PI3K (Homo sapiens, UniProt P48736); compound N#CCCn1ncc2c(N3CC4CCC(C3)O4)nc(-c3ccc(NC(=O)Nc4ccc(CCO)cc4)cc3)nc21 [Example 219]
5.86

Jot down pIC50 (PI3K (Homo sapiens, UniProt P48736)) of CC(C)C(=O)N1CCC(n2ncc3c(N4CC5CCC(C4)O5)nc(-c4ccc(NC(=O)Nc5ccccc5)cc4)nc32)CC1 [Example 87] .
5.15

Report value only: pIC50, PI3K (Homo sapiens, UniProt P48736), O=C(Nc1ccc(CO)cc1)Nc1ccc(-c2nc(N3CC4CCC(C3)O4)c3cnn(CC(F)(F)F)c3n2)cc1 [Example 253]
6.11

Look up PI3K (Homo sapiens, UniProt P48736) data: pIC50 of Cn1ncc2c(N3CC4CCC(C3)O4)nc(-c3ccc(NC(=O)Nc4ccc(CO)cc4)cc3)nc21 [Example 231] , then report it.
6.33
